# assay.method.text: Tumour tissue concentrations by HPLC with fluorescence detection
# Assay type: in vivo, human
# measurement.conditions: human, tumour tissue, oral, 75 mg tid, tumour tissue, 10 subjects, about 1 month of 75 mg tid; read-out: Tissue concentrations, mean
# Description: Therefore, the tumour tissue was frozen and cut into as small as possible pieces with a scalpel. The pieces were weighed, added to 1 ml of water, vortexed and thereafter treated like plasma. The assay for plasma samples was validated with acceptable calibration curves, within-study variability and total recovery. […] Due to limited availability of tumour tissue, the within-study validation for tumour assay was not performed.
Hi there, I'd appreciate the recorded concentration at 28 day for every entry that follows.
Give the value in nM but do not write nM after it.

Looking up CO[C@@H]1[C@H](N(C)C(=O)c2ccccc2)C[C@H]2O[C@]1(C)n1c3ccccc3c3c4c(c5c6ccccc6n2c5c31)C(=O)NC4O (single isomer, unassigned) [CGP52421 (e2)] , I found its concentration at 28 day recorded as 1500

Note to self: concentration at 28 day recorded for `CO[C@@H]1[C@H](N(C)C(=O)c2ccccc2)C[C@H]2O[C@]1(C)n1c3ccccc3c3c4c(c5c6ccccc6n2c5c31)C(=O)NC4` was 1300

Item: `CN(C(=O)c1ccccc1)[C@@H]1C[C@H]2O[C@@](C)([C@@H]1O)n1c3ccccc3c3c4c(c5c6ccccc6n2c5c31)C(=O)NC4` | concentration at 28 day: 990

* * *

# assay.method.text: Tumour tissue concentrations by HPLC with fluorescence detection
# Format: in vivo, human
# measurement.conditions: human, tumour tissue / plasma, oral, 75 mg three times a day, tumour tissue to plasma, 10 subjects; read-out: Tissue/plasma ratios, minimum
quantity.kind: Kp at 28 day
Could you respond with only the numeric value?

Given item CO[C@@H]1[C@H](N(C)C(=O)c2ccccc2)C[C@H]2O[C@]1(C)n1c3ccccc3c3c4c(c5c6ccccc6n2c5c31)C(=O)NC4O (single isomer, unassigned) [CGP52421 (e2)] , the value recorded as its Kp at 28 day is 0.033

Kp at 28 day reported for this molecule CO[C@@H]1[C@H](N(C)C(=O)c2ccccc2)C[C@H]2O[C@]1(C)n1c3ccccc3c3c4c(c5c6ccccc6n2c5c31)C(=O)NC4 [Midostaurin, N-benzoyl-staurosporine] : 0.02

Looking up CN(C(=O)c1ccccc1)[C@@H]1C[C@H]2O[C@@](C)([C@@H]1O)n1c3ccccc3c3c4c(c5c6ccccc6n2c5c31)C(=O)NC4 [CGP 62221] , I see its Kp at 28 day listed as 0.04

* * *

Give Kp at 28 day for every item shown.
# assay.method.text: Tumour tissue concentrations by HPLC with fluorescence detection
# Format: in vivo, human
# measurement.conditions: human, tumour tissue / plasma, oral, 75 mg three times a day, tumour tissue to plasma, 10 subjects; read-out: Tissue/plasma ratios, median
Just the number.

Looking up `CO[C@@H]1[C@H](N(C)C(=O)c2ccccc2)C[C@H]2O[C@]1(C)n1c3ccccc3c3c4c(c5c6ccccc6n2c5c31)C(=O)N[C@H]4O` , I see its Kp at 28 day listed as 0.083

Looking up CO[C@@H]1[C@H](N(C)C(=O)c2ccccc2)C[C@H]2O[C@]1(C)n1c3ccccc3c3c4c(c5c6ccccc6n2c5c31)C(=O)NC4O (single isomer, unassigned) [CGP52421 (e2)] , I found its Kp at 28 day recorded as 0.083

// Kp at 28 day value for `CN(C(=O)c1ccccc1)[C@@H]1C[C@H]2O[C@@](C)([C@@H]1O)n1c3ccccc3c3c4c(c5c6ccccc6n2c5c31)C(=O)NC4` : 0.2

Item: `CO[C@@H]1[C@H](N(C)C(=O)c2ccccc2)C[C@H]2O[C@]1(C)n1c3ccccc3c3c4c(c5c6ccccc6n2c5c31)C(=O)NC4` | Kp at 28 day: 0.29
